EC10 values for the compounds below.
Tested on: Mitochondrial Membrane Potential
assayName: cells
testConditions: Arec32, read-out: EC10, MMP (M)
Express your answer in M, writing the number without its unit.

>>> numericvalue("CC(C)Oc1ccc(S(=O)(=O)c2ccc(O)cc2)cc1")
"5.2e-05"
>>> numericvalue("CC(C)(c1cc(Cl)c(O)c(Cl)c1)c1cc(Cl)c(O)c(Cl)c1")
"1.48e-05"

Req: Param item = Oc1ccc(C2(c3ccc(O)cc3)CCCCC2)cc1 [BPZ, 1,1'-Bis(4-hydroxyphenyl)cyclohexane] ; retrieve measured EC10.
Resp: 2.21e-05

Req: One more compound: CC1(C)[C@H](O)C(C)(C)[C@H]1O
Resp: 0.0185

====

assayName: Acidity constant (pKa) measurement, Sirius T3 UV-metric, and speciation at pH 7.4
testConditions: from experimental pKa
recordedEndpoint: Double negative form (pH = 7.40) (%)
Express your answer in %, writing the number without its unit.

Worked cases, answers included:
>>> numericvalue("O=S(=O)(c1ccc(O)cc1)c1ccc(O)cc1")
9
>>> numericvalue("Oc1ccc(C2(c3ccc(O)cc3)CCCCC2)cc1 [BPZ, 1,1'-Bis(4-hydroxyphenyl)cyclohexane]")
0.00202

Req: Param item = O=S(=O)(c1ccc(O)cc1)c1ccccc1O [2,4-BPS, 2,4'-Dihydroxydiphenyl sulfone] ; retrieve measured Double negative form (pH = 7.40).
Resp: 5

Req: One more molecule: CC1(C)C(O)C(C)(C)C1O (racemic)
Resp: 0

Req: One more molecule: CC(C)c1cc(C(C)(C)c2ccc(O)c(C(C)C)c2)ccc1O
Resp: 4.07e-6

====

System: HEK293T (ERα)
testConditions: Bioassay ERα; cytotoxicity; dosing range high
recordedEndpoint: IC10, linear transformed
The answer should be written as a number, with no unit following it.

>>> numericvalue("O=S(=O)(c1ccc(O)cc1)c1ccc(O)cc1 [BPS, 4,4'-Sulfonyldiphenol]")
"1.03E-04"

Req: Param item = COC(=O)C(c1ccc(O)cc1)c1ccc(O)cc1 [Bz, Methyl bis(4-hydroxyphenyl)acetate] ; retrieve measured IC10, linear transformed.
Resp: 1.18E-04

Req: One more compound: Oc1ccc(C(c2ccc(O)cc2)(C(F)(F)F)C(F)(F)F)cc1 [BPAF]
Resp: 5.56E-06

Req: One more compound: CCC(C)(c1ccc(O)cc1)c1ccc(O)cc1 [BPB, 4,4'-(Butane-2,2-diyl)diphenol]
Resp: 6.28E-06

====

testedTarget: Aryl hydrocarbon receptor (Rattus norvegicus)
Sequence (P41738 10-853): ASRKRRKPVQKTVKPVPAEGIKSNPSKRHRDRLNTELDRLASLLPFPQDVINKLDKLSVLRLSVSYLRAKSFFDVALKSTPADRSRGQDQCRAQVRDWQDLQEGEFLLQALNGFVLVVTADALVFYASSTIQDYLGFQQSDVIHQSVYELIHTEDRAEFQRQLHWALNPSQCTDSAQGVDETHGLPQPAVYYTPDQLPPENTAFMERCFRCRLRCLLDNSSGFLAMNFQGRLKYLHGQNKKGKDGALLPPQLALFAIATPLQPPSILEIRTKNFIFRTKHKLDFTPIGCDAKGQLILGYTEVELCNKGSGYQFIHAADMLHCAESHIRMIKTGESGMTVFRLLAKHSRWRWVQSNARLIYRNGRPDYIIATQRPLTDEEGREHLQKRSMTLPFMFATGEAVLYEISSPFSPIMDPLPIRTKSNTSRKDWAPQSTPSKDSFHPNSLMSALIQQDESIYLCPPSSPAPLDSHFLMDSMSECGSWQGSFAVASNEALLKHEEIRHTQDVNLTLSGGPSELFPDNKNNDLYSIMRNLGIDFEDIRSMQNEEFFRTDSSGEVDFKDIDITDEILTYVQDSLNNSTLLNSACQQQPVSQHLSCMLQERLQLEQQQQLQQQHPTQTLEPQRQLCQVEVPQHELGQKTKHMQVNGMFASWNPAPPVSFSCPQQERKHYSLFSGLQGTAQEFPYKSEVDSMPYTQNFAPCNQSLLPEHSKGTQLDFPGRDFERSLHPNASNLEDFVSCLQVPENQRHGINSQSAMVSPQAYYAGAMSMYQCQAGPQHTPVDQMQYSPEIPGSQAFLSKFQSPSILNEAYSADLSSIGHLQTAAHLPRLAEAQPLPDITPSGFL
testConditions: Bioassay AhR; dosing range all
EC10, linear transformed values for the compounds below.
The answer should be written as a number, with no unit following it.

Worked cases, answers included:
>>> numericvalue("CC(c1ccc(O)cc1)c1ccc(O)cc1")
"7.73E-05"
>>> numericvalue("CC(C)(c1ccc(O)cc1)c1ccc(O)cc1 [BPA, 4,4'-(Propane-2,2-diyl)diphenol, reference compound]")
"3.80E-04"

Req: Param item = COC(=O)C(c1ccc(O)cc1)c1ccc(O)cc1 [Bz, Methyl bis(4-hydroxyphenyl)acetate] ; retrieve measured EC10, linear transformed.
Resp: 5.80E-05
